Values compiled from patent US9962369B2.

# METHOD_SUMMARY: Transdermal delivery of melatonin: plasma level of melatonin after applying composition to skin of a subject
# EXPERIMENTAL_SETUP: human, plasma, topical, Plasma level of melatonin, salt of tyrosine isopropyl ester, A− = AcO^−, 245.0 mM, 0.30 mL applied, 0 hr after transdermal administration
MEASURE_NAME: concentration at 0 h (ng/mL)
Dear colleague, please return just the value in ng/mL, with no unit written.

Problem: Could you share which concentration at 0 h value was measured for COc1ccc2[nH]cc(CCNC(C)=O)c2c1 [Melatonin] ?
Solution: 0

----------
# METHOD_SUMMARY: Transdermal delivery of melatonin: plasma level of melatonin after applying composition to skin of a subject
# EXPERIMENTAL_SETUP: human, plasma, topical, 3 mg, Plasma level of melatonin, salt of tryptophan isopropyl ester, A− = Citrate ion, 159.67 mM, 0.30 mL applied, 0 hr after transdermal administration
MEASURE_NAME: concentration at 0 h (ng/mL)
Dear colleague, please return just the value in ng/mL, with no unit written.

Problem: Could you share which concentration at 0 h value was measured for `COc1ccc2[nH]cc(CCNC(C)=O)c2c1` ?
Solution: 0

----------
# METHOD_SUMMARY: Transdermal delivery of melatonin: plasma level of melatonin after applying composition to skin of a subject
# EXPERIMENTAL_SETUP: human, plasma, topical, 0.3 mL of 1% melatonin in water, Plasma level of melatonin, salt of tyrosine isopropyl ester, A− = Lactate ion, 221.97 mM, 0.30 mL applied, 1 hr after transdermal administration
MEASURE_NAME: concentration at 1 h (ng/mL)
Dear colleague, please return just the value in ng/mL, with no unit written.

Problem: Could you share which concentration at 1 h value was measured for COc1ccc2[nH]cc(CCNC(C)=O)c2c1 [Melatonin] ?
Solution: 1.7

----------
# METHOD_SUMMARY: clinical
# EXPERIMENTAL_SETUP: human, plasma, topical, 3 mg
MEASURE_NAME: concentration at 0 hr (ng/mL)
Dear colleague, please return just the value in ng/mL, with no unit written.

Problem: Could you share which concentration at 0 hr value was measured for `COc1ccc2[nH]cc(CCNC(C)=O)c2c1` ?
Solution: 0

----------
# METHOD_SUMMARY: Transdermal delivery of melatonin: plasma level of melatonin after applying composition to skin of a subject
# EXPERIMENTAL_SETUP: human, plasma, topical, Plasma level of melatonin, salt of tyrosine isopropyl ester, A− = Cl^−, 269.51 mM, 0.30 mL applied, 2 hr after transdermal administration
MEASURE_NAME: concentration at 2 h (ng/mL)
Dear colleague, please return just the value in ng/mL, with no unit written.

Problem: Could you share which concentration at 2 h value was measured for `COc1ccc2[nH]cc(CCNC(C)=O)c2c1` ?
Solution: 2.9

----------
# METHOD_SUMMARY: Transdermal delivery of melatonin: plasma level of melatonin after applying composition to skin of a subject
# EXPERIMENTAL_SETUP: human, plasma, topical, 0.3 mL of 1% melatonin in water, Plasma level of melatonin, salt of tyrosine isopropyl ester, A− = Lactate ion, 221.97 mM, 0.30 mL applied, 8 hr after transdermal administration
MEASURE_NAME: concentration at 8 h
Enter the number, and then the unit.

Problem: Could you share which concentration at 8 h value was measured for COc1ccc2[nH]cc(CCNC(C)=O)c2c1 [Melatonin] ?
Solution: 1.6 ng/mL

----------
# METHOD_SUMMARY: Transdermal delivery of melatonin: plasma level of melatonin after applying composition to skin of a subject
# EXPERIMENTAL_SETUP: human, plasma, topical, Plasma level of melatonin, 2-(Dibutylamino)ethyl 2-acetoxybenzoate hydrochloride 188.23 mM, 0.375 mL applied to skin, 4 hr after transdermal administration
MEASURE_NAME: concentration at 4 h (ng/mL)
Dear colleague, please return just the value in ng/mL, with no unit written.

Problem: Could you share which concentration at 4 h value was measured for COc1ccc2[nH]cc(CCNC(C)=O)c2c1 [Melatonin] ?
Solution: 1.8

----------
# System: human skin tissue
# METHOD_SUMMARY: Penetration rate of AI compound in AI-helper composition through human skin in vitro, modified Franz cells
# Type: in vitro ADME
# EXPERIMENTAL_SETUP: with D-isoleucine isopropyl ester hydrochloride 6 % w/v in water; AI compound 0.5 % w/v; 25 °C
# label = label 1 if Skin penetration rate of AI compound >= 9 μg/cm^2/h else label 0

Look over these answered cases.
[[record]]
compound = "N[C@@H](CCC(=O)N[C@@H](CS)C(=O)NCC(=O)O)C(=O)O"
experimental_target = "human skin tissue"
discrete_label = "label 1"

[[record]]
compound = "CC1=C(/C=C/C(C)=C/C=C/C(C)=C/C=C/C=C(C)/C=C/C=C(C)/C=C/C2=C(C)CCCC2(C)C)C(C)(C)CCC1"
experimental_target = "human skin tissue"
discrete_label = "label 1"

[[record]]
compound = "Cc1ncc(CO)c(CO)c1O.Cl"
experimental_target = "human skin tissue"
discrete_label = "label 1"

[[record]]
compound = "Nc1nc2ncc(CNc3ccc(C(=O)N[C@@H](CCC(=O)O)C(=O)O)cc3)nc2c(=O)[nH]1"
experimental_target = "human skin tissue"
discrete_label = "label 0"

[[record]]
compound = "O=C(O)CCCCC1CCSS1 (centres unmarked)"
experimental_target = "human skin tissue"
discrete_label = "label 1"


Problem: Reported Skin penetration rate of AI compound reaches at least 9 μg/cm^2/h for `O=C1O[C@H]([C@@H](O)CO)C(O)=C1O` ?
Solution: label 0

Problem: Now try `CC1=C(/C=C/C(C)=C/C=C/C(C)=C/C=C/C=C(C)/C=C/C=C(C)/C=C/C2=C(C)C(=O)[C@@H](O)CC2(C)C)C(C)(C)C[C@H](O)C1=O` .
Solution: label 1

Problem: Now try `NCCS(=O)(=O)O` .
Solution: label 0

----------
# METHOD_SUMMARY: Transdermal delivery of melatonin: plasma level of melatonin after applying composition to skin of a subject
# EXPERIMENTAL_SETUP: human, plasma, topical, Plasma level of melatonin, salt of tyrosine isopropyl ester, A− = F^−, 287.91 mM, 0.30 mL applied, 1 hr after transdermal administration
MEASURE_NAME: concentration at 1 h (ng/mL)
Dear colleague, please return just the value in ng/mL, with no unit written.

Problem: Could you share which concentration at 1 h value was measured for `COc1ccc2[nH]cc(CCNC(C)=O)c2c1` ?
Solution: 2.2

----------
# Test system: human skin tissue
# METHOD_SUMMARY: Penetration rate of AI compound in AI-helper composition through human skin in vitro, modified Franz cells
# Assay type: in vitro ADME
# EXPERIMENTAL_SETUP: with D-leucine isopropyl ester hydrochloride 6 % w/v in water; AI compound 0.5 % w/v; 25 °C
The entries below come with measured Skin penetration rate of AI compound values attached.
Dear colleague, please return just the value in μg/cm^2/h, with no unit written.

Example results:
[[record]]
smiles_entry = "CC1=C(/C=C/C(C)=C/C=C/C(C)=C/C=C/C=C(C)/C=C/C=C(C)/C=C/C2=C(C)CCCC2(C)C)C(C)(C)CCC1"
experimental_value = 9.501

[[record]]
smiles_entry = "O=C1O[C@H]([C@@H](O)CO)C(O)=C1O"
experimental_value = 8.256

[[record]]
smiles_entry = "CC1=C(/C=C/C(C)=C/C=C/C(C)=C/C=C/C=C(C)/C=C/C=C(C)/C=C/C2=C(C)C(=O)[C@@H](O)CC2(C)C)C(C)(C)C[C@H](O)C1=O"
experimental_value = 11.134


API: the following record is the query input.
Problem: Could you share which Skin penetration rate of AI compound value was measured for `Oc1ccc(C=Cc2cc(O)cc(O)c2)cc1` ?
Solution: 16.028

----------
The entries below come with measured Skin penetration rate of AI compound values attached.
# System: human skin tissue
# METHOD_SUMMARY: Penetration rate of AI compound in AI-helper composition through human skin in vitro, modified Franz cells
# Assay type: in vitro ADME
# EXPERIMENTAL_SETUP: no isoleucine ester (None); AI compound 0.5 % w/v in water; 25 °C
Dear colleague, please return just the value in μg/cm^2/h, with no unit written.

[[record]]
molecule = "Oc1ccc(C=Cc2cc(O)cc(O)c2)cc1"
measurement_units = "μg/cm^2/h"
experimental_value = 0.016

[[record]]
molecule = "CC1=C(/C=C/C(C)=C/C=C/C(C)=C/C=C/C=C(C)/C=C/C=C(C)/C=C/C2=C(C)C(=O)[C@@H](O)CC2(C)C)C(C)(C)C[C@H](O)C1=O"
measurement_units = "μg/cm^2/h"
experimental_value = 0.013


Problem: Could you share which Skin penetration rate of AI compound value was measured for `CC1=C(/C=C/C(C)=C/C=C/C(C)=C/C=C/C=C(C)/C=C/C=C(C)/C=C/C2=C(C)CCCC2(C)C)C(C)(C)CCC1` ?
Solution: 0.015

Problem: Now try `Cc1ncc(CO)c(CO)c1O.Cl` .
Solution: 0.022

Problem: Now try O=C(O)CCCCC1CCSS1 (stereo not drawn) .
Solution: 0.057

Problem: Now try `N[C@@H](CCC(=O)N[C@@H](CS)C(=O)NCC(=O)O)C(=O)O` .
Solution: 0.013

Problem: Now try `Nc1nc2ncc(CNc3ccc(C(=O)N[C@@H](CCC(=O)O)C(=O)O)cc3)nc2c(=O)[nH]1` .
Solution: 0.012

Problem: Now try `O=C1O[C@H]([C@@H](O)CO)C(O)=C1O` .
Solution: 0.011

Problem: Now try `NCCS(=O)(=O)O` .
Solution: 0.009
